assay: Tissue distribution of NMT after 0.5% NMT in drinking water; format: in vivo, mouse; conditions: ICR, mouse, 0.5 % in drinking water; mice, oral NMT, various tissues, skin is an exception; read-out: tissue NMT relative to serum concentration of NMT
MEASURED_METRIC: Kp at 4 days

Input CNCCS(=O)(=O)O [NMT, N-Methyltaurine] . Output Kp at 4 days: 10 to 100

###

experiment: Pharmacokinetics and oral bioavailability of NMT in mice (plasma NMT by HPLC); type: in vivo, mouse; settings: male, ICR, mouse, plasma, oral, 5 mg/kg BW, p.o. 5 mg/kg BW vs i.v. 0.5 mg/kg BW, read-out: bioavailability
MEASURED_METRIC: bioavailability (%)
Express the result in % but write the number alone.

Input CNCCS(=O)(=O)O . Output bioavailability: 58
